- target_entity: GST-BowlZF (UniProt Q9VQU9 220-382)
- Sequence (Q9VQU9 220-382): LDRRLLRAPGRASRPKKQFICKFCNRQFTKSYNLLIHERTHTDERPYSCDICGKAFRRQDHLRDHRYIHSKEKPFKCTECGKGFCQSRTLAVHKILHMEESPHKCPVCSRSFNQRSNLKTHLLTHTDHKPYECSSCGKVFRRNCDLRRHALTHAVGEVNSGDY
- procedure_summary: EMSA; EMSA, 6% native polyacrylamide, 32P probes; buffers as in cited refs 22 (Bowl) and 26 (HD), not stated here
- measurement_parameters: protein: recombinant; tags: GST (N-term, pGex4T); label: 32P (Klenow dCTP)
measure_name: binding result

binder="1Sm (dsDNA) DNA 1: TACAATTTAAGCCGTC DNA 2: GACGGCTTAAATTGTA" measure_name="binding result" result="no binding"
binder="2Sm (dsDNA) DNA 1: AAATTTTAGTCCCAG DNA 2: CTGGGACTAAAATTT" measure_name="binding result" result="no binding"
binder="1L+ (CR2 large) (dsDNA) DNA 1: TACAACAGAAGCCGTCTGGC DNA 2: GCCAGACGGCTTCTGTTGTA" measure_name="binding result" result=binds
binder="1Lm (dsDNA) DNA 1: TACAATTTAAGCCGTAAAGC DNA 2: GCTTTACGGCTTAAATTGTA" measure_name="binding result" result="no binding"
